- Protocol description: CaCo-2 permeability
- Type: in vitro ADME
- Protocol conditions: human

>  <Cpd smiles>
CNc1cc(Nc2cnc(C#N)c(O[C@H](C)CN(C)C)n2)ncc1C(F)(F)F

>  <efflux ratio>
> 6

$$$$
